The reported measurements were obtained from paper PMC6273226.

Measured EC50, listed per entry.
- Tested on: TK+ VZV Oka strain
- PROTOCOL NOTES: microbe, parasite or virus in culture
- Type: cell-based, varicella-zoster virus
- TEST CONDITIONS: Human alphaherpesvirus 3, HEL, read-out: Antiviral Activity EC50 TK+ VZV Strain
Give the value in µM but do not write µM after it.

Record excerpt, results attached:
Record CCOP(=O)(OCC)[C@H]1C[C@H](c2nc3ccccc3c(=O)n2Cc2ccccc2[N+](=O)[O-])ON1C (relative stereo) [trans-11c] . Reported EC50: 46.5

Record CCOP(=O)(OCC)[C@H]1C[C@H](c2nc3ccccc3c(=O)n2Cc2ccc([N+](=O)[O-])cc2)ON1C (relative stereo) [trans-11e/cis-11e (90:10)] . Reported EC50: 34.2

Record CCOP(=O)(OCC)[C@H]1C[C@H](c2nc3ccccc3c(=O)n2CC)ON1C (relative stereo) [trans-11k/cis-11k (97:3)] . Reported EC50: 38.8

Record CCOP(=O)(OCC)[C@H]1C[C@H](c2nc3ccccc3c(=O)n2Cc2ccc(F)cc2F)ON1C (relative stereo) [trans-11i/cis-11i (97:3)] . Reported EC50: 9.44

Record CCOP(=O)(OCC)[C@H]1C[C@H](c2nc3ccccc3c(=O)n2Cc2ccc(F)cc2)ON1C (relative stereo) [trans-11h] . Reported EC50: 15.3

Record O=c1[nH]c(=O)n([C@H]2C[C@H](O)[C@@H](CO)O2)cc1/C=C/Br [Brivudin, reference compound] . Reported EC50: 0.019

Continuing:
Record CCOP(=O)(OCC)[C@H]1C[C@H](c2nc3ccccc3c(=O)n2Cc2ccccc2F)ON1C (relative stereo) [trans-11f/cis-11f (90:10)] . Reported EC50: 6.84
